- system-name: Dipeptidyl peptidase 4 (Homo sapiens, UniProt P27487)
- Sequence (P27487 whole entry): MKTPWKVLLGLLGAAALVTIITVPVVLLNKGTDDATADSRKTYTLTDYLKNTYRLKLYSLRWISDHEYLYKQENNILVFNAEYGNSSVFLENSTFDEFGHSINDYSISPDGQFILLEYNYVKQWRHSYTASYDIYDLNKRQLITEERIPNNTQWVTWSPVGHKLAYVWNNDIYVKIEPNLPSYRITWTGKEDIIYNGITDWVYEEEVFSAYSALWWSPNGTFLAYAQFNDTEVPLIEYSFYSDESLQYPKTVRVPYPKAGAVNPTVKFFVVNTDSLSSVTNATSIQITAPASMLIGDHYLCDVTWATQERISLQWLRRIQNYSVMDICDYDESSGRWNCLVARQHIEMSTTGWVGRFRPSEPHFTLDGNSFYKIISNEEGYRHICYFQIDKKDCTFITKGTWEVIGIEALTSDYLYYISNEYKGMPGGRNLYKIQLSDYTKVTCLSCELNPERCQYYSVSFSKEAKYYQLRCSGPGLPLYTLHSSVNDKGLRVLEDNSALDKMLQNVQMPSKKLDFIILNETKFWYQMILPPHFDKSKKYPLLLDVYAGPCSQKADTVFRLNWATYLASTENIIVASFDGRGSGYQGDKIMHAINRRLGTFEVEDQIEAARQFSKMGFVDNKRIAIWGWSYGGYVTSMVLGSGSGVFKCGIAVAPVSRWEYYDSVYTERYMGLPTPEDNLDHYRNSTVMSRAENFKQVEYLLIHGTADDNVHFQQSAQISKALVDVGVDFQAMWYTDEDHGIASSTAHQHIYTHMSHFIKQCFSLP
- assay-info: Inhibitory concentration against human dipeptidylpeptidase 4
measured-parameter: pIC50
Units for pIC50: none; it is -log10 of a concentration expressed in mol/L.

Query: May I ask what pIC50 has been recorded for NCC[C@H](N)C(=O)N1CCC[C@@H]1B(O)O ?
Reply: 7.82

Query: What does the data say about its pIC50? Entry: CCCC[C@@H](NC(=O)[C@@H](N)CCC)B(O)O
Reply: 6.09

Query: Consider the molecule shown here: CCCC[C@H](N)C(=O)N1CCC[C@@H]1B(O)O What is its recorded pIC50?
Reply: 8.35

Query: Which pIC50 value belongs to CCCC[C@@H](NC(=O)[C@@H](N)CCCN)B(O)O ?
Reply: 5.92

Query: Look at this molecule and give its reported pIC50. CCCC[C@@H](NC(=O)[C@@H](N)CCCC)B(O)O
Reply: 6.43

Query: Could you tell me which pIC50 is on file for CCCC[C@@H](NC(=O)[C@@H](N)CN)B(O)O ?
Reply: 5.70

Query: Consider the molecule CCCC[C@@H](NC(=O)[C@@H](N)CC)B(O)O and give its measured pIC50.
Reply: 4.49

Query: For the molecule shown here, CCCC[C@@H](NC(=O)[C@@H](N)C(C)C)B(O)O , give the reported pIC50.
Reply: 4.77

----------
measured-parameter: IC50
Field note: include the unit after the figure.

Query: Please tell me: IC50 of CCCC[C@@H](NC(=O)[C@@H](N)CCC)B(O)O , system Dipeptidyl peptidase 2 (Homo sapiens)?
Reply: 71 nM

Query: What IC50 appears in the records for this compound with Dipeptidyl peptidase 2 (Homo sapiens)? CCCC[C@@H](NC(=O)[C@@H](N)CCCC)B(O)O
Reply: 18 nM

Query: Lab note: need IC50 with Dipeptidyl peptidase 2 (Homo sapiens) for entry CCCCCNC(=O)[C@@H](N)CCCC , please look it up.
Reply: 5500 nM

Query: Find IC50 (Dipeptidyl peptidase 2 (Homo sapiens)) for the entry CCCC[C@@H](NC(=O)[C@@H]1CCCN1)B(O)O
Reply: 890 nM
